assayedTarget: human factor XIa (Homo sapiens)
Construct: purchased Haematologic Technologies (Essex Junction, Vt.); host or cells: human plasma
protocolText: Direct inhibition of factor XIa, chromogenic substrate S-2366 hydrolysis assay
Assay type: biochemical
particulars: sulfated QAOs, pH 7.4, 37° C.; read-out: IC50 (converted)
measuredQuantity: IC50 (µM)

COc1cc(-c2nc3ccccc3c(=O)n2CCCCn2cc(Cn3c(-c4cccc(OS(=O)(=O)O)c4)nc4ccccc4c3=O)nn2)ccc1OS(=O)(=O)O [Inhibitor 17S] :: 182
O=c1c2ccccc2nc(-c2ccc(OS(=O)(=O)O)cc2)n1CCCCn1cc(Cn2c(-c3cccc(OS(=O)(=O)O)c3)nc3ccccc3c2=O)nn1 [Inhibitor 12S] :: 159

###

assayedTarget: human factor XIa (Homo sapiens, UniProt P03951)
Construct: purchased Haematologic Technologies (Essex Junction, Vt.); host or cells: human plasma
Sequence (P03951 19-387 limits assumed): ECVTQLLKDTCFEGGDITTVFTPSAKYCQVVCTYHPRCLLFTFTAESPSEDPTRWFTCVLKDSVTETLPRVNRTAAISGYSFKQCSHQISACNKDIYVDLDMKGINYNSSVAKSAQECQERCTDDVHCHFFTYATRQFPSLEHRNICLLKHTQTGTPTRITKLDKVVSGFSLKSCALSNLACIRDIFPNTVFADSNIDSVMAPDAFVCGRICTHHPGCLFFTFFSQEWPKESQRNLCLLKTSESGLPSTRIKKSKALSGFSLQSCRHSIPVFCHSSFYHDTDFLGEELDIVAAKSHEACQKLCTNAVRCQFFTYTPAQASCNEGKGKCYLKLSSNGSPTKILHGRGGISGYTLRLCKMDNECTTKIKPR
Sequence (P03951 388-625 limits assumed): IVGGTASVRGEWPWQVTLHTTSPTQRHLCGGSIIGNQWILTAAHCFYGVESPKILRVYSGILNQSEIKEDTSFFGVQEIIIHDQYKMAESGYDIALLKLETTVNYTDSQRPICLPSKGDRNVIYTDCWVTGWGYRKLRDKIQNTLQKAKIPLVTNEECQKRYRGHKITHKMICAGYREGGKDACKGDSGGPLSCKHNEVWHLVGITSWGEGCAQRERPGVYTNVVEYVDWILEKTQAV
protocolText: Direct inhibition of factor XIa, chromogenic substrate S-2366 hydrolysis assay
Format: biochemical
particulars: sulfated QAOs, pH 7.4, 37° C.; read-out: IC50 (converted)
measuredQuantity: IC50 (µM)

COc1cc(-c2nc3ccccc3c(=O)n2CCCCn2cc(Cn3c(-c4ccc(OS(=O)(=O)O)c(OC)c4)nc4ccccc4c3=O)nn2)ccc1OS(=O)(=O)O [Inhibitor 10S] :: 139

A = CC(=O)Oc1cc(OS(=O)(=O)O)cc(-c2nc3ccccc3c(=O)n2Cc2cn(CCCCn3c(-c4cccc(OS(=O)(=O)O)c4)nc4ccccc4c3=O)nn2)c1
B = O=c1c2ccccc2nc(-c2ccc(OS(=O)(=O)O)cc2)n1CCCCCn1cc(Cn2c(-c3ccc(OS(=O)(=O)O)cc3)nc3ccccc3c2=O)nn1 [Inhibitor 15S]
Input line: Which record shows the lower IC50: the first, A , or the second, B ? Your answer should be the label attached to the chosen record.
Output line: B
(B: 59 µM, A: 153 µM)

###

assayedTarget: human factor XIa (Homo sapiens)
Construct: purchased Haematologic Technologies (Essex Junction, Vt.); host or cells: human plasma
protocolText: Direct inhibition of factor XIa, chromogenic substrate S-2366 hydrolysis assay
Format: biochemical
particulars: sulfated QAOs, pH 7.4, 37° C.; read-out: IC50 (converted)
measuredQuantity: IC50 (µM)

O=c1c2ccccc2nc(-c2cccc(OS(=O)(=O)O)c2)n1CCCCn1cc(Cn2c(-c3cc(OS(=O)(=O)O)cc(OS(=O)(=O)O)c3)nc3ccccc3c2=O)nn1 [Inhibitor 18S] :: 213

P = COc1cc(-c2nc3ccccc3c(=O)n2CCCCn2cc(COc3cc(-c4oc5cc(OS(=O)(=O)O)cc(OC)c5c(=O)c4OS(=O)(=O)O)ccc3OS(=O)(=O)O)nn2)ccc1OS(=O)(=O)O [Inhibitor 26S]
Q = O=c1c2ccccc2nc(-c2cccc(OS(=O)(=O)O)c2)n1CCCCn1cc(Cn2c(-c3ccc(OS(=O)(=O)O)cc3)nc3ccccc3c2=O)nn1 [Inhibitor 14S]
Input line: Select one: P or Q . Criterion: greater recorded IC50. Your answer should be the label attached to the chosen record.
Output line: P

###

assayedTarget: human factor XIa (Homo sapiens)
Construct: purchased Haematologic Technologies (Essex Junction, Vt.); host or cells: human plasma
protocolText: Direct inhibition of factor XIa, chromogenic substrate S-2366 hydrolysis assay
Type: biochemical
particulars: sulfated QAOs
measuredQuantity: ΔY % (efficacy) (%)

CC(=O)Oc1cc(OS(=O)(=O)O)cc(-c2nc3ccccc3c(=O)n2Cc2cn(CCCCn3c(-c4cccc(OS(=O)(=O)O)c4)nc4ccccc4c3=O)nn2)c1 :: 96
O=c1c2ccccc2nc(-c2cccc(OS(=O)(=O)O)c2)n1CCCn1cc(Cn2c(-c3cccc(OS(=O)(=O)O)c3)nc3ccccc3c2=O)nn1 [Inhibitor 11S] :: 91
O=c1c2ccccc2nc(-c2ccc(OS(=O)(=O)O)cc2)n1CCCCn1cc(Cn2c(-c3ccc(OS(=O)(=O)O)cc3)nc3ccccc3c2=O)nn1 [Inhibitor 13S] :: 91
